# system_name: Recombinant Cat D (Homo sapiens (Human), UniProt P07339)
# Sequence (P07339 65-412): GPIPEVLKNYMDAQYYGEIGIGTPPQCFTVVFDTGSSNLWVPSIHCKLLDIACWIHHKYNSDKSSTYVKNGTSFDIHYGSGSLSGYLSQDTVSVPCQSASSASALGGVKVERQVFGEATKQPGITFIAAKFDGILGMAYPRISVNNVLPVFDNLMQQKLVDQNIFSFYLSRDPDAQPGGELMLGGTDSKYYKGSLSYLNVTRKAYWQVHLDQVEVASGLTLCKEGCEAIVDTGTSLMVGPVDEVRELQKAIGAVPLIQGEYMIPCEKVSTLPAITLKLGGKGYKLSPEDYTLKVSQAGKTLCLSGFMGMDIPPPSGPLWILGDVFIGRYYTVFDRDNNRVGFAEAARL
# protocol_description: In vitro enzymatic Cathepsin D (Cat D) FRET assay
# Assay type: biochemical
# setup_conditions: read-out: IC50 IP (μM) CatD
# Description: In Vitro Enzymatic Cathepsin D (Cat D) FRET (Fluorescence Resonance Energy Transfer) Assay Recombinant Cat D was expressed in CHO cells. The assay buffer for CathepsinD is 0.05 M citrate pH 3.5, 10% DMSO final, 5 mM CHAPS. […] The FRET assay is terminated with by addition of Tris buffer, which raises the pH to neutrality, and the fluorescence is determined. […] Proteolytic cleavage of the FRET substrate releases quenching of fluorescence (Cat D excitation 500 nm and emission 580 nm).
IC50 listing for selected compounds.

Please review the following examples before continuing.
| line_notation | IC50 |
| --- | --- |
| C#CCOc1cnc2c(Nc3ccc(F)c([C@@]4(CF)N=C(N)S[C@@]5(c6c[nH]nn6)C[C@@H]45)c3)nccc2n1 | > 400 µM |
| COC[C@]12C[C@H]1[C@@](C)(c1cc(NC(=O)c3ncc(O[C@@H](C)c4ncco4)cc3C)cc(F)c1F)N=C(N)S2 | > 400 µM |

API: the following record is the query input.
So what does the record say about IC50 for "C#CCOc1cnc2c(Nc3ccc(F)c([C@@]4(C)N=C(N)S[C@@]5(C(=O)NC)C[C@H]54)c3)nccc2n1" ?
> 400 µM

###

# system_name: Recombinant Cat D (Homo sapiens (Human), UniProt P07339)
# protocol_description: In vitro enzymatic Cathepsin D (Cat D) FRET assay
# Format: biochemical
# setup_conditions: read-out: IC50 IP (μM) CatD
measure: IC50 (µM)

| compound | IC50, µM |
| --- | --- |
| C[C@]1(c2cc(NC(=O)c3cnc(OCc4ncco4)cn3)cc(F)c2F)N=C(N)S[C@@]2(S(C)(=O)=O)C[C@H]21 [Example 746] | 880 |

a = COC[C@]12C[C@H]1[C@@](C)(c1cc(NC(=O)c3cnc(OCC4CC4(F)F)cn3)cc(F)c1F)N=C(N)S2 (stereo partly drawn) [Example 1035]
b = C[C@]1(c2cc(NC(=O)c3cnc(OCc4ncco4)cn3)ccc2F)N=C(N)S[C@@]2(C(=O)NC3CC3)C[C@H]21 [Example 799]
c = COC[C@]12C[C@H]1[C@@](C)(c1cc(Nc3ncnc4cc(OCc5ncco5)cnc34)cc(F)c1F)N=C(N)S2 [Example 809]
Exam item: list the entries in increasing order of IC50. Answer by listing the labels in the requested order.
c, b, a

###

# system_name: Recombinant Cat D (Homo sapiens (Human), UniProt P07339)
# protocol_description: In vitro enzymatic Cathepsin D (Cat D) FRET assay
# Type: biochemical
# setup_conditions: read-out: IC50 IP (μM) CatD
measure: IC50 (µM)

1 = CN(C)C(=O)[C@]12C[C@H]1[C@@](CF)(c1cc(NC(=O)c3ccc(Cl)cn3)ccc1F)N=C(N)S2 [Example 790]
2 = CC(C)(CF)NC(=O)[C@]12C[C@H]1[C@@](C)(c1cc(NC(=O)c3ccc(C#N)cn3)ccc1F)N=C(N)S2 [Example 1018]
3 = C[C@]1(c2cc(Nc3ncnc4cc(OCc5ncco5)cnc34)cnc2F)N=C(N)S[C@@]2([C@@H](O)C(F)(F)F)C[C@H]21 [Example 668]
List items by IC50 in falling order. Answer by listing the labels in the requested order.
3, 1, 2
(3: 1970 µM, 1: 792 µM, 2: 211 µM)

###

# system_name: human recombinant BACE1 (Homo sapiens (Human))
# Sequence (P56817 46-501): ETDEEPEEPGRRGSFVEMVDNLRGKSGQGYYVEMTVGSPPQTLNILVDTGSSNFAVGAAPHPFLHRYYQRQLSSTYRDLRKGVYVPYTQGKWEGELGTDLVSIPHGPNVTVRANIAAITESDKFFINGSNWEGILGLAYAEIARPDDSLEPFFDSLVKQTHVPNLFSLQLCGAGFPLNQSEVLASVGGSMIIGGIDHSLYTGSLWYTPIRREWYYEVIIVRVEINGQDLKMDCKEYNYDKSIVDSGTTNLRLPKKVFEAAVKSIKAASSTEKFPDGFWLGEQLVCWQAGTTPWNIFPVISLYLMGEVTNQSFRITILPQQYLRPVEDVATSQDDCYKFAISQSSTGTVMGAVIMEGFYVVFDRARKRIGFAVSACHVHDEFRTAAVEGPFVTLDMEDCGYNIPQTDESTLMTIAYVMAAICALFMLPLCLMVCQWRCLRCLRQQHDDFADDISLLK
# protocol_description: In vitro enzymatic BACE1 FRET assay
# Type: biochemical
# setup_conditions: BACE1 FRET enzyme assay; read-out: IC50 IP (μM) BACE1 enzyme
measure: IC50 (µM)

Please review the following examples before continuing.
| compound | system_name | measure | value |
| --- | --- | --- | --- |
| COC[C@]12C[C@H]1[C@@](C)(c1cc(Nc3ncnc4cc(Cl)cnc34)cc(F)c1F)N=C(N)S2 [Example 35] | human recombinant BACE1 (Homo sapiens (Human)) | IC50 | 0.00386 |
| NC1=N[C@](CF)(c2cc(Nc3ncnc4cc(Cl)cnc34)cc(F)c2F)[C@@H]2C[C@@H]2S1 [Example 22] | human recombinant BACE1 (Homo sapiens (Human)) | IC50 | 0.0149 |

P = N#Cc1cnc2c(Nc3cc(F)c(F)c([C@@]4(CF)N=C(N)S[C@H]5C[C@H]54)c3)nccc2c1 [Example 26]
Q = COC[C@]12C[C@H]1[C@@](CF)(c1cc(Nc3nccc4cc(C#N)cnc34)cc(F)c1F)N=C(N)S2 [Example 47]
From the recorded data, which exceeds the other in IC50: P or Q ? Returns: label corresponding to the selected item.
P
(P: 0.0107 µM, Q: 0.00318 µM)

###

# system_name: Recombinant Cat D (Homo sapiens (Human), UniProt P07339)
# protocol_description: In vitro enzymatic Cathepsin D (Cat D) FRET assay
# Type: biochemical
# setup_conditions: read-out: IC50 IP (μM) CatD
IC50 listing for selected molecules.

Please review the following examples before continuing.
| molecule | IC50 |
| --- | --- |
| COC[C@]12C[C@H]1[C@@](C)(c1cc(NC(=O)c3cnc(OCC4(C)COC4)cn3)ccc1F)N=C(N)S2 [Example 1050] | > 400 µM |
| C[C@]1(c2cc(NC(=O)c3ccc(OCC(F)(F)F)cn3)cc(F)c2F)N=C(N)S[C@@]2(C#N)C[C@H]21 [Example 1012] | > 400 µM |

API: the following record is the query input.
Tell me reported IC50 for COC[C@]12C[C@H]1[C@@](C)(c1cc(NC(=O)c3ncc(OCc4ncco4)nc3C)ccc1F)N=C(N)S2 [Example 835] , tested with Recombinant Cat D (Homo sapiens (Human), UniProt P07339).
> 400 µM

###

# system_name: Recombinant Cat D (Homo sapiens (Human), UniProt P07339)
# protocol_description: In vitro enzymatic Cathepsin D (Cat D) FRET assay
# Format: biochemical
# setup_conditions: read-out: IC50 IP (μM) CatD
measure: IC50 (µM)

| line_notation | system_name | IC50 / µM |
| --- | --- | --- |
| C#CCOc1cnc2c(Nc3ccc(F)c([C@@]4(C)N=C(N)S[C@]5(C(C)(C)O)[C@H]4C5(F)F)c3)nccc2n1 | Recombinant Cat D (Homo sapiens (Human), UniProt P07339) | 476 |
| C#CCOc1cnc(C(=O)Nc2cc(F)c(F)c([C@@]3(C)N=C(N)S[C@@]4(COCC)C[C@H]43)c2)cn1 | Recombinant Cat D (Homo sapiens (Human), UniProt P07339) | 43.5 |
| C[C@]1(c2cc(NC(=O)c3ccc(Cl)cn3)cc(F)c2F)N=C(N)S[C@@H]2[C@H]1C2(F)F | Recombinant Cat D (Homo sapiens (Human), UniProt P07339) | 129 |
| C#CCOc1cnc2c(Nc3ccc(F)c([C@@]4(CF)N=C(N)S[C@H]5C[C@H]54)c3)ncnc2c1 | Recombinant Cat D (Homo sapiens (Human), UniProt P07339) | 780 |
| COC[C@]12C[C@H]1[C@@](C)(c1cc(NC(=O)c3c[nH]c(=O)cn3)cc(F)c1F)N=C(N)S2 | Recombinant Cat D (Homo sapiens (Human), UniProt P07339) | 981 |
| C#CCOc1cnc(C(=O)Nc2cc(F)c(F)c([C@@]3(C)N=C(N)S[C@@]4(C(=O)N5CCCC5)C[C@H]43)c2)cn1 | Recombinant Cat D (Homo sapiens (Human), UniProt P07339) | 12.9 |

A = C#CCOc1cnc(C(=O)Nc2cc(F)c(F)c([C@@]3(C)N=C(N)S[C@@]4(CF)C[C@H]43)c2)c(Cl)c1
B = COC[C@]12C[C@H]1[C@@](C)(c1cc(Nc3nccc4cc(OCc5ncon5)cnc34)cc(F)c1F)N=C(N)S2
From the recorded data, which exceeds the other in IC50: A or B ? Returns: label corresponding to the selected item.
B

A = NC1=N[C@](CF)(c2cc(NC(=O)c3ccc(Cl)cn3)ccc2F)[C@@H]2C[C@]2(COCC(F)(F)F)S1
B = CN(C)C(=O)/C=C/[C@]12C[C@H]1[C@@](CF)(c1cc(Nc3nccc4cc(OCc5ncco5)cnc34)ccc1F)N=C(N)S2
Decide: A or B , by lowest recorded IC50. Returns: label corresponding to the selected item.
B

I = Cc1nc(OCc2ncco2)cnc1C(=O)Nc1cc(F)c(F)c([C@@]2(C)N=C(N)S[C@@]3(CF)C[C@H]32)c1
II = C#C[C@H](C)Oc1cnc(C(=O)Nc2ccc(F)c([C@@]3(C)N=C(N)S[C@@]4(C(F)F)C[C@@H]34)c2)c(C)n1
From the recorded data, which exceeds the other in IC50: I or II ? Returns: label corresponding to the selected item.
I
(I: 1060 µM, II: 655 µM)

A = NC1=N[C@](CF)(c2cc(Nc3ncnc4cc(OCc5ncco5)cnc34)ccc2F)[C@@H]2C[C@@H]2S1
B = Cc1nc(OCC(F)(F)F)cnc1C(=O)Nc1ccc(F)c([C@@]2(C)N=C(N)S[C@@]3(C(F)F)C[C@@H]23)c1
Decide: A or B , by lowest recorded IC50. Returns: label corresponding to the selected item.
B
